- Test target: Rac GTPase-activating protein 1 (Homo sapiens) (UniProt Q9H0H5)
- Sequence (Q9H0H5 whole entry, looked up): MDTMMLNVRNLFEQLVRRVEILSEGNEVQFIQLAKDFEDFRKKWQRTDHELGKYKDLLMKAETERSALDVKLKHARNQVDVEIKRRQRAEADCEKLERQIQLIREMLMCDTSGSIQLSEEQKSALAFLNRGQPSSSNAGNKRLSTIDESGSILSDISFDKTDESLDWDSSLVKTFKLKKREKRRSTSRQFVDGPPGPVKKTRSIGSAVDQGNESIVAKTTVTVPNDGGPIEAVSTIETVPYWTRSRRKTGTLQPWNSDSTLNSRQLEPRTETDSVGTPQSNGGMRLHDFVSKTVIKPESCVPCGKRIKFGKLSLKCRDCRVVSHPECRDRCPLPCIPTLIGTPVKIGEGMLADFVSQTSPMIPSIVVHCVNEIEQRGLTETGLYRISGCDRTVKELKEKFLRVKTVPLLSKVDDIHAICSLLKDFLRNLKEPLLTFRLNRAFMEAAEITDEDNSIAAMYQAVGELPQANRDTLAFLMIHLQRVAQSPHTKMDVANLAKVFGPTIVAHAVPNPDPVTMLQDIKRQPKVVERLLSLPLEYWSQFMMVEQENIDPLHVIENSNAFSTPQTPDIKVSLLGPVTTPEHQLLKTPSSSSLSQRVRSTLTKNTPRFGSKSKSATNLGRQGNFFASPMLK
- Protocol summary: blockers of MgcRacGAP-driven Rac1 GTP hydrolysis – biochemical, ADP Hunter fluorescence, primary and confirmatory, confirmation (AID 624330);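 further: fluorescence reports GDP produced by GAP-driven GTP hydrolysis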
- Experimental context: MgcRacGAP-stimulated Rac1 GTP hydrolysis, at 30 µM, active compounds read high, GST-tagged Rac1 F28L mutant substrate
Hit rate of the full screen: of about 340,000 compounds, about 2,100 (0.62%) were called active. Only a sample is shown. Entries with a potency or affinity are not part of this list.
Here, each record is paired with measured inhibition data.
Experimental endpoint: inhibition (%)

In [3]: df
Out[3]:
                                    compound  experimental_endpoint  numeric_value
 0  CCOC(=O)CCNCC1COc2ccccc2O1 (stereo unspecified)             inhibition           0.26
 1                NC1=NC(=O)/C(=C/c2cccs2)S1             inhibition           4.92
 2              Cc1ccc(N=C2CCCCCN2C)c(C#N)c1             inhibition           3.58
 3  COc1ccccc1NS(=O)(=O)c1ccc(C)c(C(=O)N2CCCC2)c1             inhibition          -1.95
 4  COc1ccc(NC2CCCN(C(=O)CCN3CCOCC3)C2)cc1 (stereo unspecified)             inhibition           12.5
 5  CC(C)c1ccc(NC2CCCN(C(=O)CN3CCOC3=O)C2)cc1 (stereo unspecified)             inhibition            8.4
 6  Cc1ccccc1C(=O)N(CC(=O)Nc1sc(C)c(C)c1C(N)=O)C1CCCC1             inhibition          -20.9
 7  S=c1[nH]nc(-c2cc(-c3ccccc3)n[nH]2)n1/N=C/c1ccc(Br)s1             inhibition           20.5
 8  Oc1cccc(/C=N/Nc2cc(N3CCOCC3)nc(N3CCOCC3)n2)c1             inhibition           18.3
 9  CCSc1nnc(NC(=O)[C@H](C)NC(=O)c2ccccc2Cl)s1             inhibition           9.72
10  Oc1ccccc1/C=N/Nc1cc(N2CCCC2)nc(N2CCCC2)n1             inhibition          -4.19
11  N=c1c(S(=O)(=O)c2ccc(Br)cc2)cc2c(=O)n3ccccc3nc2n1C1CCCC1             inhibition           3.79
12  Cc1cccc(C(=O)NCC(=O)NC2CCC(C)CC2)c1 (stereo unspecified)             inhibition           3.71
13               CN(C1=NC(=O)CS1)c1ccc(O)cc1             inhibition           9.21
14                       CC(=O)NC1=NC(=O)CS1             inhibition           2.93
15  CC(C)c1ccc(NC2CCCN(C(=O)CCN3Cc4ccccc4C3=O)C2)cc1 (stereo unspecified)             inhibition           4.84
16  CC(C)c1ccc(NC2CCCN(C(=O)CCN3CCCO3)C2)cc1 (stereo unspecified)             inhibition           2.53
17  N/C(=N\OC(=O)Cc1ccc(-c2ccccc2)cc1)c1cccnc1             inhibition           5.49
18  CN(Cc1ccccc1)C(=O)COC(=O)c1ccc(S(=O)(=O)N(C)C)cc1             inhibition           9.46
19  O=C(Oc1ccc(/C=N/n2cnnc2)cc1)c1cccc([N+](=O)[O-])c1             inhibition           13.5
20  CCCn1c(=NC(=O)CCS(=O)(=O)c2ccccc2)sc2cc(S(N)(=O)=O)ccc21             inhibition          -5.12
21  COCC1CCCCN1Cc1cn[nH]c1-c1ccc(OC)cc1OC (stereo unspecified)             inhibition          -6.12
22  CC1Cc2ccccc2N1S(=O)(=O)c1cnc(Cl)c(Cl)c1 (stereo unspecified)             inhibition           6.78
23   CCN1CCN(c2ccc(NC(=O)c3ccccc3F)cc2Cl)CC1             inhibition           10.3
24   S=c1[nH]nc(-c2ccccn2)n1/N=C/c1ccc(Br)s1             inhibition           18.4
25             COc1cc(C=O)ccc1OC(=O)c1cccnc1             inhibition           7.23
26  Cc1cccc(Cn2cc(/C=C/[N+](=O)[O-])c3ccccc32)c1             inhibition           3.28
27     COc1cc(/C=N/n2cnnc2)ccc1OC(=O)c1ccco1             inhibition           16.6
28  CC(C)n1nc(C(=O)NCCc2ccc(S(N)(=O)=O)cc2)c2ccccc2c1=O             inhibition           0.38
29  COc1cc(/C=N/NC(=O)c2ccncc2)ccc1OC(=O)c1cc(OC)c(OC)c(OC)c1             inhibition           16.1
30   COc1ccc(S(=O)(=O)N2CCN(c3ncccn3)CC2)cc1             inhibition          -2.15
31  O=C(O)c1cc(O)c2c(c1)C(=O)c1cccc(O)c1C2=O             inhibition           28.8
32  Cc1cccc(/C=N/Nc2cc(N3CCOCC3)nc(N3CCOCC3)n2)c1             inhibition          -20.8
33  CC(C)(C)OC(=O)N[C@@H](Cc1ccccc1)C(=O)NCC1CCC(C(=O)N[C@@H](CC(=O)O)C(=O)O)CC1 (stereo partly specified)             inhibition          -2.85
34  CCc1c(O)nc(SCC(=O)N2CCOCC2)n(-c2ccccc2)c1=O             inhibition           9.22
35  CC(NC(=O)CCC(=O)NC(C)C1COc2ccccc2O1)C1COc2ccccc2O1 (stereo unspecified)             inhibition           6.94
36  Cc1cc(C(=O)NNC(=S)NCC2CCCO2)cs1 (stereo unspecified)             inhibition            9.6
37            COC(=O)Nc1nnc(-c2ccc(OC)cc2)s1             inhibition             16
38        FC(F)(F)c1ccncc1-c1nnc(C2CCCCC2)o1             inhibition           12.4
39         COc1cc2ncnc(NCc3ccc(F)cc3)c2cc1OC             inhibition           5.92
40  COc1ccc(NC2CCCN(C(=O)CCCN3CCCCC3=O)C2)cc1 (stereo unspecified)             inhibition           29.9
41  CC(C)c1ccc(/C=N/Nc2cc(N3CCOCC3)nc(N3CCOCC3)n2)cc1             inhibition           2.24
42  CC(=O)Nc1cccc(NC(=O)CSc2n[nH]c(-c3ccccc3)n2)c1             inhibition           2.62
43  CC(C(=O)Nc1ccc(S(=O)(=O)N2CCOCC2)cc1)N1CCN(c2ccccn2)CC1 (stereo unspecified)             inhibition          -2.88
44       Cc1ccc(Nc2nc3ccccc3n3cnnc23)c(Cl)c1             inhibition            5.8
45             N#Cc1ccccc1N=C1CCCN1Cc1ccccc1             inhibition           16.7
